Data origin: patent US8835438B2

Tested on: memory/learning dysfunctions in the passive avoidance response
Assay Text: Passive avoidance response test, drug administered alone without MK-801
Assay type: in vivo, Wistar male rats
Condition Label: drug alone without MK-801, passive avoidance response, rats
Readout Label: Minimum dose to induce memory dysfunction by single application

Previously resolved entries follow.
compound_structure_string=O=C(CCCN1CCC(O)(c2ccc(Cl)cc2)CC1)c1ccc(F)cc1 result_value="10 mg/kg, p.o"
compound_structure_string=OCCOCCN1CCN(C2=Nc3ccccc3Sc3ccccc32)CC1 result_value="30 mg/kg, p.o"
compound_structure_string=O=C1CCc2ccc(OCCCCN3CCN(c4cccc(Cl)c4Cl)CC3)cc2N1 result_value="10 mg/kg, p.o"

Item: Cc1nc2n(c(=O)c1CCN1CCC(c3noc4cc(F)ccc34)CC1)CCCC2 | System: memory/learning dysfunctions in the passive avoidance response | Minimum dose to induce memory dysfunction by single application: 3 mg/kg, p.o

Value sought: Minimum dose to induce memory dysfunction by single application, system memory/learning dysfunctions in the passive avoidance response, item O=C1[C@@H]2[C@H]3CC[C@H](C3)[C@@H]2C(=O)N1C[C@@H]1CCCC[C@H]1CN1CCN(c2nsc3ccccc23)CC1 . Result: >30 mg/kg, p.o

Minimum dose to induce memory dysfunction by single application on memory/learning dysfunctions in the passive avoidance response for CN1CCN(C2=Nc3cc(Cl)ccc3Nc3ccccc32)CC1 is 10 mg/kg, p.o

###

The compounds listed here are annotated with their % of animals avoiding.
Tested on: MK-801-induced memory/learning dysfunctions
Assay Text: Step-through passive avoidance response test, MK-801-induced memory/learning dysfunctions
Assay type: in vivo, Wistar male rats
Condition Label: MK-801 prior to both training and testing sessions; MK-801 + drug 1 mg/kg p.o.
// units = %; emit number, no label

compound="O=C(CCCN1CCC(O)(c2ccc(Cl)cc2)CC1)c1ccc(F)cc1 [Haloperidol]" assayed_target="MK-801-induced memory/learning dysfunctions" readout_label="% of animals avoiding" unit_info=% result_value=15

Measured % of animals avoiding, Cc1cc2c(s1)Nc1ccccc1N=C2N1CCN(C)CC1 [Olanzapine, olanzapine] : 20

The recorded % of animals avoiding for entry OCCOCCN1CCN(C2=Nc3ccccc3Sc3ccccc32)CC1 [Quetiapine, quetiapine] equals 20

% of animals avoiding reading for Cc1nc2n(c(=O)c1CCN1CCC(c3noc4cc(F)ccc34)CC1)CCCC2 [Risperidone, risperidone] : 28

Per the records, this compound ( O=C1CCc2ccc(OCCCCN3CCN(c4cccc(Cl)c4Cl)CC3)cc2N1 [Aripiprazole, aripiprazole] ) has % of animals avoiding equal to 16

###

Catalogue of % of animals avoiding values
Test system: MK-801-induced memory/learning dysfunctions
Assay Text: Step-through passive avoidance response test, MK-801-induced memory/learning dysfunctions
Type: in vivo, Wistar male rats
Condition Label: MK-801 prior to both training and testing sessions; MK-801 + drug 1 mg/kg p.o.
Marks after values point to notes of the source that are not given here.

Past entries and their recorded results:
compound_structure_string=CN1CCN(C2=Nc3cc(Cl)ccc3Nc3ccccc32)CC1 readout_label="% of animals avoiding" result_value="36* %"
compound_structure_string=COc1ccccc1N1CCN(CCN(C(=O)C2CCCCC2)c2ccccn2)CC1 readout_label="% of animals avoiding" result_value="40* %"
compound_structure_string=Cl.Cl.c1cnc(N2CCNCC2)nc1 readout_label="% of animals avoiding" result_value="47* %"

For this molecule ( O=C1[C@@H]2[C@H]3CC[C@H](C3)[C@@H]2C(=O)N1C[C@@H]1CCCC[C@H]1CN1CCN(c2nsc3ccccc23)CC1 ), measured % of animals avoiding is 35* %
